# System: L1210
# assayExplanation: Inhibitory activity against murine L1210 leukemic cell growth
# Format: functional
# conditionDescription: Mus musculus, read-out: ID50 (the source's name)
readout: IC50 (µM)
Respond with the bare value in µM.

Some solved cases for reference:
Qu. Given the molecule O=C1c2cccc(O)c2C(=O)c2c(O)cc(C(Br)Br)cc21 , what is its reported IC50?
Ans. 0.44

Qu. Param item: COc1cc(OC)c2c(c1)C(=O)c1cc(C(Br)Br)cc(OC)c1C2=O
Ans. 41

Qu. Param item: CCCCNCc1cc(O)c2c(c1)C(=O)c1cccc(O)c1C2=O
Ans. 4.6

More entries:
Qu. Given the molecule COc1cc(O)c2c(c1)C(=O)c1cc(CBr)cc(OC)c1C2=O , what is its reported IC50?
Ans. 0.068

Qu. Param item: COc1cccc2c1C(=O)c1c(OC)cc(CNCCO)cc1C2=O
Ans. 140

Qu. Param item: COc1cccc2c1C(=O)c1c(OC)cc(CNCCCl)cc1C2=O
Ans. 26
